# testedTarget: GDP-bound KRAS wild-type protein (Homo sapiens, UniProt P01116)
# Sequence (P01116 whole entry): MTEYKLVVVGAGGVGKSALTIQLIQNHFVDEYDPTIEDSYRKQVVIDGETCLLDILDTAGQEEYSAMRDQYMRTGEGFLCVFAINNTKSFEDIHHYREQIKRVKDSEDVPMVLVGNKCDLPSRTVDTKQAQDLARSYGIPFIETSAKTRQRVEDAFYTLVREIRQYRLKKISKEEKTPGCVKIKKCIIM
# procedureDetails: Binding to KRAS by surface plasmon resonance (SPR), Single Cycle Kinetics
# measurementSetup: SPR Single Cycle Kinetics, GDP-bound KRAS wild-type protein, 1:1 binding model; read-out: KRAS KD
*1 amine or outer side, *2 acyl side, *3 side chain or, on linkers, in order; H or OH if unused. Where a SMILES comes first, the peptide text is derived from it. Bridges are numbered along the chain shown (N, C = ends). [ ]: non-standard residue; d: D form. The star is where a group is joined. hPhe(3-Cl-4-CF3) = N[C@@H](CCc1ccc(C(F)(F)F)c(Cl)c1)C(=O)O; X23 = C=CCCN([C@@H](Cc1ccc(C(F)(F)F)cc1)C(=O)[*:2])[*:1]; NPrPhe(4-CF3) = CCCN[C@@H](Cc1ccc(C(F)(F)F)cc1)C(=O)O; X46 = CCCCN([C@@H](Cc1ccc(C)cc1)C(=O)[*:2])[*:1]; NMePhe(4-Me) = CN[C@@H](Cc1ccc(C)cc1)C(=O)O; NMeGly(cPent) = CN[C@H](C(=O)O)C1CCCC1; Aze(3S-Me) = C[C@H]1CN[C@@H]1C(=O)O; Hyp = O=C(O)[C@@H]1C[C@@H](O)CN1; NMeD = CN[C@@H](CC(=O)O)C(=O)O; NMeL = CN[C@@H](CC(C)C)C(=O)O; Morpholide = C1CN(*)CCO1; NMeA = CN[C@@H](C)C(=O)O; Ac5c = NC1(C(=O)O)CCCC1; Aze = O=C(O)[C@@H]1CCN1; Ac4c = NC1(C(=O)O)CCC1; NEtG = CCNCC(=O)O; Sar = CNCC(=O)O
Hi! Could you tag entries with Kd below 0.9 nM as condition met, and those at or above as condition not met? Much appreciated.

State whether 0.9 nM exceeds Kd recorded for CC[C@H](C)[C@@H]1NC(=O)[C@H](CC(C)C)N(C)C(=O)C[C@@H](C(=O)N2CCOCC2)N(C)C(=O)[C@H](C2CCCC2)N(C)C(=O)C2(CCCC2)NC(=O)[C@@H]2CCCN2C(=O)[C@H](CCc2ccc(C(F)(F)F)c(Cl)c2)NC(=O)CN(C)C(=O)[C@H](Cc2ccc(OC(F)(F)F)cc2)N2CCCCC[C@@H](C2=O)N(C)C(=O)CN(C)C1=O [PP0615] .
condition not met

State whether 0.9 nM exceeds Kd recorded for CCCN1C(=O)CN(C)C(=O)CNC(=O)[C@H]([C@@H](C)CC)NC(=O)[C@H](CC(C)C)N(C)C(=O)C[C@@H](C(=O)N2CCOCC2)N(C)C(=O)[C@H](C2CCCC2)N(C)C(=O)C2(CCC2)NC(=O)[C@@H]2C[C@@H](OCC)CN2C(=O)[C@H](CCc2ccc(C(F)(F)F)c(Cl)c2)NC(=O)CN(C)C(=O)[C@@H]1Cc1ccc(C(F)(F)F)cc1 [PP0397] ([NMeL]IG[Sar][NPrPhe(4-CF3)][Sar][hPhe(3-Cl-4-CF3)][Hyp](Et)[Ac4c][NMeGly(cPent)][NMeD]-Morpholide; lactam N-11) .
condition met

State whether 0.9 nM exceeds Kd recorded for CCCN1C(=O)[C@@H]2[C@@H](C)CN2C(=O)[C@H](C)N(C)C(=O)[C@H]([C@@H](C)CC)NC(=O)[C@H](CC(C)C)N(C)C(=O)C[C@@H](C(=O)N2CCOCC2)N(C)C(=O)[C@H](C2CCCC2)N(C)C(=O)C2(CCCC2)NC(=O)[C@@H]2CCCN2C(=O)[C@H](CCc2ccc(C(F)(F)F)c(Cl)c2)NC(=O)CN(C)C(=O)[C@@H]1Cc1ccc(C(F)(F)F)cc1 [PP0141] ([NMeL]I[NMeA][Aze(3S-Me)][NPrPhe(4-CF3)][Sar][hPhe(3-Cl-4-CF3)]P[Ac5c][NMeGly(cPent)][NMeD]-Morpholide; lactam N-11) .
condition met

State whether 0.9 nM exceeds Kd recorded for CCCN1C(=O)[C@@H]2CCN2C(=O)CN(C)C(=O)[C@H]([C@@H](C)CC)NC(=O)[C@H](CC(C)C)N(C)C(=O)C[C@@H](C(=O)N(C)C)N(C)C(=O)[C@H](C2CCCC2)N(C)C(=O)C2(CCCC2)NC(=O)[C@@H]2CCCN2C(=O)[C@H](CCc2ccc(C(F)(F)F)c(Cl)c2)NC(=O)CN(C)C(=O)[C@@H]1Cc1ccc(C(F)(F)F)cc1 [PP0440] ([NMeL]I[Sar][Aze][NPrPhe(4-CF3)][Sar][hPhe(3-Cl-4-CF3)]P[Ac5c][NMeGly(cPent)][NMeD]-NMe2; lactam N-11) .
condition met

State whether 0.9 nM exceeds Kd recorded for CCCCN1C(=O)CN(C)C(=O)CN(C)C(=O)[C@H]([C@@H](C)CC)NC(=O)[C@H](CC(C)C)N(C)C(=O)C[C@@H](C(=O)N2CCOCC2)N(C)C(=O)[C@H](C2CCCC2)N(C)C(=O)C2(CCCC2)NC(=O)[C@@H]2CCCN2C(=O)[C@H](CCc2ccc(C(F)(F)F)c(Cl)c2)NC(=O)CN(C)C(=O)[C@@H]1Cc1ccc(C)cc1 [PP0062] ([NMeL]I[Sar][Sar][X46][Sar][hPhe(3-Cl-4-CF3)]P[Ac5c][NMeGly(cPent)][NMeD]-Morpholide; lactam N-11) .
condition met

State whether 0.9 nM exceeds Kd recorded for CC[C@H](C)[C@@H]1NC(=O)[C@H](CC(C)C)N(C)C(=O)C[C@@H](C(=O)N2CCOCC2)N(C)C(=O)[C@H](C2CCCC2)N(C)C(=O)C2(CCCC2)NC(=O)[C@@H]2CCCN2C(=O)[C@H](CCc2ccc(C(F)(F)F)c(Cl)c2)NC(=O)CN(CC)C(=O)[C@H](Cc2ccc(C)cc2)N(C)C(=O)CN(CC)C(=O)CN(C)C1=O [PP0029] ([NMeL]I[Sar][NEtG][NMePhe(4-Me)][NEtG][hPhe(3-Cl-4-CF3)]P[Ac5c][NMeGly(cPent)][NMeD]-Morpholide; lactam N-11) .
condition not met

State whether 0.9 nM exceeds Kd recorded for C=CCCN1C(=O)CN(C)C(=O)CN(C)C(=O)[C@H]([C@@H](C)CC)NC(=O)[C@H](CC(C)C)N(C)C(=O)C[C@@H](C(=O)N2CCOCC2)N(C)C(=O)[C@H](C2CCCC2)N(C)C(=O)C2(CCCC2)NC(=O)[C@@H]2CCCN2C(=O)[C@H](CCc2ccc(C(F)(F)F)c(Cl)c2)NC(=O)CN(C)C(=O)[C@@H]1Cc1ccc(C(F)(F)F)cc1 [PP0129] ([NMeL]I[Sar][Sar][X23][Sar][hPhe(3-Cl-4-CF3)]P[Ac5c][NMeGly(cPent)][NMeD]-Morpholide; lactam N-11) .
condition met

State whether 0.9 nM exceeds Kd recorded for CCC[C@H]1C(=O)N[C@@H]([C@@H](C)CC)C(=O)N2CCC[C@H]2C(=O)N(C)[C@H]2C/C=C\CCN(C2=O)[C@@H](Cc2ccc(C)cc2)C(=O)N(C)CC(=O)N[C@@H](CCc2ccc(Cl)c(Cl)c2)C(=O)N2C[C@H](OC(C)C)C[C@H]2C(=O)NC2(CC(C)(C)C2)C(=O)N(C)[C@@H](C(CC)CC)C(=O)N(C)[C@H](C(=O)N(C)C)CC(=O)N1C [PP2641] .
condition not met
